Overview of reported %Cell Cycle Arrest/Phase %G0-G1 across a group of compounds:
Tested on: HepG2 cells
Method summary: Cell cycle analysis by flow cytometry (PI staining)
Type: cell-based, human
Condition summary: HepG2, 5 µM, 48 h
Reported property: %Cell Cycle Arrest/Phase %G0-G1

[
  {
    "Compound": "COc1cccc2c1C(=O)c1c(O)c3c(c(O)c1C2=O)C[C@@](O)(C(=O)CO)C[C@@H]3O[C@H]1C[C@H](N)[C@H](O)[C@H](C)O1 [Doxorubicin, reference compound]",
    "Reported property": "%Cell Cycle Arrest/Phase %G0-G1",
    "Observed measurement": "29.74%"
  },
  {
    "Compound": "Cc1ccc(C(=O)CC2(O)C(=O)Nc3ccc(S(=O)(=O)N4CCCCC4)cc32)cc1 (stereo not shown)",
    "Reported property": "%Cell Cycle Arrest/Phase %G0-G1",
    "Observed measurement": "31.57%"
  },
  {
    "Compound": "CC(=O)Nc1cccc(C(=O)C=C2C(=O)Nc3ccc(S(=O)(=O)N4CCCCC4)cc32)c1",
    "Reported property": "%Cell Cycle Arrest/Phase %G0-G1",
    "Observed measurement": "36.44%"
  },
  {
    "Compound": "CC(=O)Nc1ccc(C(=O)C=C2C(=O)Nc3ccc(S(=O)(=O)N4CCCCC4)cc32)cc1",
    "Reported property": "%Cell Cycle Arrest/Phase %G0-G1",
    "Observed measurement": "41.25%"
  }
]

* * *

Test system: mice
Method summary: In vivo acute (14-day) oral toxicity study
Condition summary: 14 days after single dose, compounds 250 mg/kg oral, doxorubicin 15 mg/kg I.P

[
  {
    "Compound": "COc1cccc2c1C(=O)c1c(O)c3c(c(O)c1C2=O)C[C@@](O)(C(=O)CO)C[C@@H]3O[C@H]1C[C@H](N)[C@H](O)[C@H](C)O1 [Doxorubicin, reference compound]",
    "S.ALT": "52.97 ± 0.92 *^,# U/L"
  },
  {
    "Compound": "CCOC(=O)/C(C#N)=C1\\C(=O)Nc2ccc(S(=O)(=O)N3CCCCC3)cc21 [Compound 2a]",
    "S.ALT": "28.42 ± 0.27 ^^ U/L"
  },
  {
    "Compound": "Cc1ccc(C(=O)CC2(O)C(=O)Nc3ccc(S(=O)(=O)N4CCCCC4)cc32)cc1 (stereo not shown) [Compound 3a]",
    "S.ALT": "27.05 ± 0.81 ^^ U/L"
  },
  {
    "Compound": "CC(=O)Nc1ccc(C(=O)C=C2C(=O)Nc3ccc(S(=O)(=O)N4CCCCC4)cc32)cc1 [Compound 4b]",
    "S.ALT": "27.95 ± 0.34 ^^ U/L"
  },
  {
    "Compound": "Cc1ccc(C(=O)/C=C2\\C(=O)Nc3ccc(S(=O)(=O)N4CCCCC4)cc32)cc1 [Compound 4a]",
    "S.ALT": "28.14 ± 0.56 ^^ U/L"
  },
  {
    "Compound": "O=C1Nc2ccc(S(=O)(=O)N3CCCCC3)cc2/C1=C/C(=O)c1ccc(O)cc1 [Compound 4d]",
    "S.ALT": "30.14 ± 0.93 ^^ U/L"
  },
  {
    "Compound": "CC(=O)Nc1cccc(C(=O)C=C2C(=O)Nc3ccc(S(=O)(=O)N4CCCCC4)cc32)c1 [Compound 4c]",
    "S.ALT": "28.41 ± 0.28 ^^ U/L"
  }
]

* * *

Overview of reported CC50 at 48 h across a group of compounds:
Method summary: In vitro safety/cell viability MTT assay on normal RPE1 cells
Type: cell-based, human
Condition summary: human, RPE1 cells (noncancerous); normal RPE1 cells, MTT

[
  {
    "Compound": "CC(=O)Nc1ccc(C(=O)C=C2C(=O)Nc3ccc(S(=O)(=O)N4CCCCC4)cc32)cc1 [Compound 4b]",
    "Inequality operator": ">",
    "CC50 at 48 h (µM)": 100
  },
  {
    "Compound": "CCOC(=O)/C(C#N)=C1\\C(=O)Nc2ccc(S(=O)(=O)N3CCCCC3)cc21 [Compound 2a]",
    "Inequality operator": "=",
    "CC50 at 48 h (µM)": 40.3
  },
  {
    "Compound": "O=C1Nc2ccc(S(=O)(=O)N3CCCCC3)cc2/C1=C/C(=O)c1ccc(O)cc1 [Compound 4d]",
    "Inequality operator": "=",
    "CC50 at 48 h (µM)": 11.9
  },
  {
    "Compound": "CC(=O)Nc1cccc(C(=O)C=C2C(=O)Nc3ccc(S(=O)(=O)N4CCCCC4)cc32)c1 [Compound 4c]",
    "Inequality operator": ">",
    "CC50 at 48 h (µM)": 100
  },
  {
    "Compound": "Cc1ccc(C(=O)CC2(O)C(=O)Nc3ccc(S(=O)(=O)N4CCCCC4)cc32)cc1 (stereo not drawn) [Compound 3a]",
    "Inequality operator": ">",
    "CC50 at 48 h (µM)": 100
  },
  {
    "Compound": "Cc1ccc(C(=O)/C=C2\\C(=O)Nc3ccc(S(=O)(=O)N4CCCCC4)cc32)cc1 [Compound 4a]",
    "Inequality operator": "=",
    "CC50 at 48 h (µM)": 21.9
  }
]

* * *

System: mice
Method summary: In vivo acute (14-day) oral toxicity study
Condition summary: 14 days after single dose, compounds 250 mg/kg oral, doxorubicin 15 mg/kg I.P
Reported property: S.Creatinine

[
  {
    "Compound": "O=C1Nc2ccc(S(=O)(=O)N3CCCCC3)cc2/C1=C/C(=O)c1ccc(O)cc1 [Compound 4d]",
    "Observed measurement": "0.85 ± 0.03 ^^ mg/dL"
  },
  {
    "Compound": "COc1cccc2c1C(=O)c1c(O)c3c(c(O)c1C2=O)C[C@@](O)(C(=O)CO)C[C@@H]3O[C@H]1C[C@H](N)[C@H](O)[C@H](C)O1 [Doxorubicin, reference compound]",
    "Observed measurement": "1.57 ± 0.02 *^,# mg/dL"
  },
  {
    "Compound": "Cc1ccc(C(=O)/C=C2\\C(=O)Nc3ccc(S(=O)(=O)N4CCCCC4)cc32)cc1 [Compound 4a]",
    "Observed measurement": "0.70 ± 0.02 ^^ mg/dL"
  }
]

* * *

Overview of reported % Death Rate at 100 p.p.m (μg/mL) Huh7 across a group of molecules:
System: Huh7 cells
Method summary: MTT cytotoxicity assay on Huh7 cells
Assay type: cell-based, human
Condition summary: 48 h, 100 p.p.m (μg/mL)
Marks after values point to notes of the source that are not given here.

[
  {
    "Molecule": "COc1cccc2c1C(=O)c1c(O)c3c(c(O)c1C2=O)C[C@@](O)(C(=O)CO)C[C@@H]3O[C@H]1C[C@H](N)[C@H](O)[C@H](C)O1 [Doxorubicin, reference compound]",
    "% Death Rate at 100 p.p.m (μg/mL) Huh7": "100%"
  },
  {
    "Molecule": "CCOC(=O)/C(C#N)=C1\\C(=O)Nc2ccc(S(=O)(=O)N3CCCCC3)cc21 [Compound 2a]",
    "% Death Rate at 100 p.p.m (μg/mL) Huh7": "100 * %"
  },
  {
    "Molecule": "Cc1ccc(C(=O)CC2(O)C(=O)Nc3ccc(S(=O)(=O)N4CCCCC4)cc32)cc1 (centres unmarked) [Compound 3a]",
    "% Death Rate at 100 p.p.m (μg/mL) Huh7": "100 * %"
  },
  {
    "Molecule": "CC(=O)Nc1ccc(C(=O)C=C2C(=O)Nc3ccc(S(=O)(=O)N4CCCCC4)cc32)cc1 [Compound 4b]",
    "% Death Rate at 100 p.p.m (μg/mL) Huh7": "76.00 * %"
  },
  {
    "Molecule": "CC(=O)Nc1cccc(C(=O)C=C2C(=O)Nc3ccc(S(=O)(=O)N4CCCCC4)cc32)c1 [Compound 4c]",
    "% Death Rate at 100 p.p.m (μg/mL) Huh7": "75.60 * %"
  }
]

* * *

Overview of reported S.T.Bilirubin across a group of compounds:
Test system: mice
Method summary: In vivo acute (14-day) oral toxicity study
Condition summary: 14 days after single dose, compounds 250 mg/kg oral, doxorubicin 15 mg/kg I.P

[
  {
    "Compound": "O=C1Nc2ccc(S(=O)(=O)N3CCCCC3)cc2/C1=C/C(=O)c1ccc(O)cc1 [Compound 4d]",
    "S.T.Bilirubin": "0.69 ± 0.016 ^^ mg/dL"
  },
  {
    "Compound": "Cc1ccc(C(=O)CC2(O)C(=O)Nc3ccc(S(=O)(=O)N4CCCCC4)cc32)cc1 (stereo not shown) [Compound 3a]",
    "S.T.Bilirubin": "0.65 ± 0.026 ^^ mg/dL"
  },
  {
    "Compound": "CCOC(=O)/C(C#N)=C1\\C(=O)Nc2ccc(S(=O)(=O)N3CCCCC3)cc21 [Compound 2a]",
    "S.T.Bilirubin": "0.65 ± 0.018 ^^ mg/dL"
  },
  {
    "Compound": "COc1cccc2c1C(=O)c1c(O)c3c(c(O)c1C2=O)C[C@@](O)(C(=O)CO)C[C@@H]3O[C@H]1C[C@H](N)[C@H](O)[C@H](C)O1 [Doxorubicin, reference compound]",
    "S.T.Bilirubin": "1.45 ± 0.072 mg/dL"
  },
  {
    "Compound": "CC(=O)Nc1cccc(C(=O)C=C2C(=O)Nc3ccc(S(=O)(=O)N4CCCCC4)cc32)c1 [Compound 4c]",
    "S.T.Bilirubin": "0.73 ± 0.014 ^^ mg/dL"
  },
  {
    "Compound": "Cc1ccc(C(=O)/C=C2\\C(=O)Nc3ccc(S(=O)(=O)N4CCCCC4)cc32)cc1 [Compound 4a]",
    "S.T.Bilirubin": "0.72 ± 0.019 ^^ mg/dL"
  },
  {
    "Compound": "CC(=O)Nc1ccc(C(=O)C=C2C(=O)Nc3ccc(S(=O)(=O)N4CCCCC4)cc32)cc1 [Compound 4b]",
    "S.T.Bilirubin": "0.70 ± 0.013 ^^ mg/dL"
  }
]
